Molecular target: T1, 4H4033-AA
T1 chain: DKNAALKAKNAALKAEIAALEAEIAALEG
Assay: two-hybrid library CCmax;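 also: natural log of median RNA to DNA barcode read ratio; higher means stronger binding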
Settings: mean of both orientations

- BINDER: "DKIAALKAEIAALEAKNAALEAKIAALKG [4H2614-AA]"
  interaction score: -1.43
- BINDER: "DENAALEAEIAALKAEIAALKAKNAALEG [4H1103-AA]"
  interaction score: 0.386
- BINDER: "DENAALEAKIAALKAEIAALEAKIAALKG [4H1350-AA]"
  interaction score: -0.0842
- BINDER: "DEIAALEAKIAALKAKNAALEAEIAALEG [4H369-AA]"
  interaction score: -0.678
- BINDER: "DKNAALKAEIAALKAEIAALKAKNAALKG [4H3664-AA]"
  interaction score: -1.55
- BINDER: "DEIAALEAKIAALKAEIAALEAKNAALEG [4H327-AA]"
  interaction score: 0.297
- BINDER: "DKIAALKAKIAALKAKNAALEAKNAALEG [4H2935-AA]"
  interaction score: -1.05
- BINDER: "DENAALEAKIAALKAKNAALKAKIAALEG [4H1405-AA]"
  interaction score: -0.407
- BINDER: "DKIAALEAKNAALKAENAALEAEIAALEG [4H2513-AA]"
  interaction score: -1.46
